Source listed as the supplement of paper PMC10567573.

B1: FBF1 (parent)
chain: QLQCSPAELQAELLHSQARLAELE

Variants of: B1
Assay: protein stability index of a GFP-peptide fusion (GPS, HEK-293T) (PSI 1-6); higher = more stable;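 further: lentivirally expressed fusions sorted by FACS into six bins by GFP to DsRed ratio, PSI derived from sequencing read proportions per bin multiplied by bin number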
Conditions: c terminus: a fixed tail appended
Mark yes for reported protein stability index of 3 or greater; mark no for anything smaller.

MUTATION_KEY	LABEL_CLASS
L2D	yes
A7H	no
E12M	yes

query: I'd appreciate it if you could say whether `Q3F` has protein stability index at least equal to 3.
result: no

query: Quick check: does `H15E` have protein stability index greater than or equal to 3?
result: yes

query: Could you tell me if the measured protein stability index of `L14V` reaches 3 or more?
result: yes

query: Decide: is the reported value of protein stability index for `R19S` equal to or greater than 3?
result: yes

query: Does `L2H` have a reported protein stability index of at least 3?
result: yes

query: Does `Q17R` have a reported protein stability index of at least 3?
result: yes

query: Is protein stability index for `L9I` at or above 3?
result: yes
